In this section we review reported normalized growth values for a set of compounds.
assay: chemical genetic growth profiling, strain panel (AID 1159580);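 further: tested at 20 µM; growth read once vehicle control cultures reached saturation at 30 °C; 1 = growth at the plate median or of vehicle wells; lower values mean less growth of the strain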; settings: S. cerevisiae deletion strains, growth OD, locus YBR021W, strain FUR4, stronger effect = lower value
About 2,000 (36%) of roughly 5,500 compounds were called active. Another 18% or so got no clear call; they are omitted. The list shows a part of the results.
Respond using a number only.

>>> print(df.to_string())
                                        smi  reported
0  C=C[C@H]1CN2CC[C@H]1C[C@H]2[C@H](O)c1ccnc2ccccc12      1.01
1   COc1cc(O)c2c(c1)C(=O)c1cc(C)cc(O)c1C2=O      1.04

Query: Entry under review: "O=C(O)CCC(=O)OC[C@@H](NC(=O)C(Cl)Cl)[C@H](O)c1ccc([N+](=O)[O-])cc1" . Reported normalized growth?
Result: 1.02

----------
assay: chemical genetic growth profiling, strain panel (AID 1159580); details: S. cerevisiae deletion strains, growth OD, locus YDL074C, strain BRE1, stronger effect = lower value
About 2,000 (36%) of roughly 5,500 compounds were called active. Roughly 18% stayed inconclusive and do not appear here. This is one part of the list.
endpoint name: normalized growth
Respond using a number only.

compound	normalized growth
CN(C)CCC[C@@]1(c2ccc(F)cc2)OCc2cc(C#N)ccc21	1.02
CC(C)OC(=O)Nc1cccc(Cl)c1	0.899
CCCCN(CC)c1c([N+](=O)[O-])cc(C(F)(F)F)cc1[N+](=O)[O-]	1.03
COC(=O)C[C@H]1C(C)(C)[C@@H](OC(C)=O)[C@@H]2CC3=C4CC(=O)O[C@@H](c5ccoc5)[C@]4(C)CCC3[C@@]1(C)C2=O (stereo partly specified)	0.996
Oc1cccc2cccnc12	0.0979

Query: Entry under review: "CC(=O)NS(=O)(=O)c1ccc(N)cc1" . Reported normalized growth?
Result: 1.02

Query: Cool, now "O=C1C=CC(=O)c2c(O)cccc21"
Result: 1.02

Query: Cool, now "COc1cc2cccc(OC)c(=O)c2c(OC)c1OC"
Result: 1

Query: Cool, now COC(=O)CC1C(C)(C)C(=O)C2CC3(O)C4=CC(=O)OC(c5ccoc5)C4(C)CCC3C1(C)C2=O (stereo unspecified)
Result: 1

Query: Cool, now "CNC(=O)Oc1ccccc1OC(C)C"
Result: 1.08

Query: Cool, now "CCCN(CCC)c1c([N+](=O)[O-])cc(C(F)(F)F)cc1[N+](=O)[O-]"
Result: 1.04

----------
experiment: chemical genetic growth profiling, strain panel (AID 1159580); details: S. cerevisiae deletion strains, growth OD, locus YJL134W, strain LCB3, stronger effect = lower value
About 2,000 (36%) of roughly 5,500 compounds were called active. Another 18% or so got no clear call; they are omitted. The list shows a part of the results.
endpoint name: normalized growth
Respond using a number only.

Below: 4 compounds and their reported normalized growth.
compound	endpoint name	reported
CCCCCC/C=C\CCCCCCCc1cccc(O)c1C(=O)O	normalized growth	1
NC(Cc1ccc(Cl)cc1)C(=O)O (configuration not stated)	normalized growth	0.99
O=C(O)c1cccnc1C(=O)O	normalized growth	1.01
CC[C@H]1OC(=O)[C@H](C)[C@@H](O[C@H]2C[C@@](C)(OC)[C@@H](O)[C@H](C)O2)[C@H](C)[C@@H](O[C@@H]2O[C@H](C)C[C@H](N(C)C)[C@H]2O)[C@](C)(O)C[C@@H](C)/C(=N/OCOCCOC)[C@H](C)[C@@H](O)[C@]1(C)O	normalized growth	1

Query: Entry under review: "CN1CCC[C@H]1c1cccnc1" . Reported normalized growth?
Result: 0.989

Query: Cool, now "COc1cc(O)c2c(c1)C(=O)c1cc(C)cc(O)c1C2=O"
Result: 1.01

----------
In this section we review reported normalized growth values for a set of compounds.
assay: chemical genetic growth profiling, strain panel (AID 1159580); details: S. cerevisiae deletion strains, growth OD, locus YJR016C, strain ILV3, stronger effect = lower value
Hit rate of the full screen: of about 5,500 compounds, about 2,000 (36%) were called active. About 18% were inconclusive and are not listed. The list shows a part of the results.
Respond using a number only.

Below: 3 compounds and their reported normalized growth.
In [3]: df
Out[3]:
                                   compound      endpoint_name  reported
0           Cc1ccc2nc3c(nc2c1)-c1ccccc1C3=O  normalized growth     0.935
1    COc1ccc(OC)c2nc3c(nc12)C(=O)c1ccccc1-3  normalized growth     0.977
2  CC(C)(C)c1ccc(-c2cc(NC(=O)c3ccc(Cl)cc3)n[nH]2)cc1  normalized growth      1.03

Let us examine a further case.
Query: Entry under review: "S=C(NCCc1csc2ccccc12)Nc1ccc(Cl)cc1" . Reported normalized growth?
Result: 0.945

----------
assay: chemical genetic growth profiling, strain panel (AID 1159580);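 further: tested at 20 µM; growth read once vehicle control cultures reached saturation at 30 °C; 1 = growth at the plate median or of vehicle wells; lower values mean less growth of the strain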; details: S. cerevisiae deletion strains, growth OD, locus YPL256C, strain CLN2, stronger effect = lower value
Screen size: about 5,500 compounds; about 2,000 (36%) were called active. Inconclusive results (about 18%) are left out. This is one part of the list.
Field 'label' (enum: t / f). Set to t when normalized growth is strictly under 0.9; else f.

In [3]: df
Out[3]:
                                   compound  assigned_class
0              CC(C)OC(=O)Nc1cc(Cl)cc(Cl)c1               t
1  Cc1cc(Oc2c([N+](=O)[O-])cc(C(F)(F)F)cc2[N+](=O)[O-])c2c(Cl)ccc(C)c2n1               t
2  O=[N+]([O-])c1cc(C(F)(F)F)cc([N+](=O)[O-])c1Oc1ccc(Cl)c(Cl)c1               t
3    O=C(O)[C@H]1/C(=C/CO)O[C@@H]2CC(=O)N21               f

Query: hey, is normalized growth for COCC1=C(C(=O)OC(C)OC(=O)OC(C)C)N2C(=O)[C@@H](NC(=O)/C(=N\OC)c3csc(N)n3)[C@H]2SC1 (some centres not stated) lower than 0.9 or not?
Result: f

Query: Cool, now "COc1cc(C2SCCS2)cc(Br)c1OC(=O)NC(=O)c1c(Cl)cccc1Cl"
Result: f

Query: Cool, now CC(=O)OC[C@@]1(O)C[C@@]23CCC4c5ccoc5CC[C@]4(C)C2CC[C@@H]1C3 (some centres not stated)
Result: f

----------
test: chemical genetic growth profiling, strain panel (AID 1159580);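 further: tested at 20 µM; growth read once vehicle control cultures reached saturation at 30 °C; 1 = growth at the plate median or of vehicle wells; lower values mean less growth of the strain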; conditions: S. cerevisiae deletion strains, growth OD, locus YML124C, strain tub3
Hit rate of the full screen: of about 5,500 compounds, about 2,000 (36%) were called active. Not shown: some 18% with an inconclusive outcome. Rule as the data show it: active = normalized growth mostly below about 0.91 (no sharp cut-off); inconclusive = no clear call, values can overlap the other calls; inactive = mostly above about 0.92. Some of the results follow.
In this exercise, the only acceptable responses are T for active, F for inactive

Look over these answered cases.
compound	assigned class
COc1ccc(-c2c(O)c3c(OC)c4c(cc3oc2=O)OC(C)(C)C=C4)cc1	F
CCCC(=O)Nc1ccc(OCC(O)CNC(C)C)c(C(C)=O)c1 (stereo not drawn)	F
CC(=O)O[C@@H]1C2CC[C@@H]3C1(C[C@@H](O)[C@@]1(O)[C@@H](C[C@H](O)C1(C)C)[C@]3(C)O)C[C@@]2(C)O (stereo partly drawn)	F
COC(=O)c1cc(OC)c(=O)c2c(OC)c(OC)ccc2c1	F
COc1cc2cccc(OC)c(=O)c2c(OC)c1OC	F
CCCCCC/C=C\CCCCCCCc1cccc(O)c1C(=O)O	F
C/C(=C\CO)CC[C@H](C)CCC[C@H](C)CCCC(C)C	T
CC(=O)Nc1c(I)cc(I)c(C(=O)O)c1I	F

Query: Dear colleague, could you share the recorded outcome for "Cn1cnc2c1c(=O)[nH]c(=O)n2C" when you have a moment?
Result: F

Query: Cool, now "Cn1c(=O)c2c(ncn2C)n(C)c1=O"
Result: F

----------
assay: chemical genetic growth profiling, strain panel (AID 1159580);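 further: tested at 20 µM; growth read once vehicle control cultures reached saturation at 30 °C; 1 = growth at the plate median or of vehicle wells; lower values mean less growth of the strain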; conditions: S. cerevisiae deletion strains, growth OD, locus YHR094C, strain hxt1, stronger effect = lower value
Among all 5,500 compounds or so, about 2,000 (36%) were called active. Not shown: some 18% with an inconclusive outcome. This is one part of the list.
endpoint name: normalized growth
Respond using a number only.

Query: Entry under review: COC(=O)C(O)[C@H]1C(C)(C)[C@@H](OC(C)=O)[C@@H]2CC3=C4CC(=O)O[C@@H](c5ccoc5)[C@]4(C)CCC3[C@@]1(C)C2=O (some centres undefined) . Reported normalized growth?
Result: 1

Query: Cool, now CNC(C)[C@@H]1CC[C@@H](N)[C@@H](OC2[C@@H](N)C[C@@H](N)[C@H](OC3OC[C@](C)(O)[C@H](NC)[C@H]3O)[C@H]2O)O1 (some centres undefined)
Result: 1.01

Query: Cool, now "CC1=C(C(=O)O)N2C(=O)[C@@H](NC(=O)[C@@H](N)c3ccc(O)cc3)[C@H]2SC1"
Result: 0.983

Query: Cool, now CC(=O)OC[C@@]1(O)C[C@@]23CCC4c5ccoc5CC[C@]4(C)C2CC[C@@H]1C3 (some centres undefined)
Result: 0.96

Query: Cool, now "N[C@@H](C(=O)N[C@@H]1C(=O)N2C(C(=O)O)=C(Cl)CS[C@H]12)c1ccccc1"
Result: 1.02

Query: Cool, now "Cn1c(=O)[nH]c2ncn(C)c2c1=O"
Result: 0.992

Query: Cool, now O=C(c1ccccc1)c1ccc2n1CCC2C(=O)O (centres undefined)
Result: 0.985

Query: Cool, now "Cc1cc(O)c2c(c1)C(=O)c1cccc(O)c1C2=O"
Result: 1.01

Query: Cool, now CCCC(=O)Nc1ccc(OCC(O)CNC(C)C)c(C(C)=O)c1 (centres undefined)
Result: 1.01

Query: Cool, now COC(=O)C[C@H]1C(C)(C)[C@H](O)[C@@H]2CC3=C4CC(O)O[C@@H](c5ccoc5)[C@]4(C)CCC3[C@@]1(C)C2=O (some centres undefined)
Result: 0.984

Query: Cool, now CC(=O)Oc1c(C)c(C)c2c(c1C)CCC(C)(CCCC(C)CCCC(C)CCCC(C)C)O2 (centres undefined)
Result: 0.989

Query: Cool, now "CC[C@H]1OC(=O)[C@H](C)[C@@H](O[C@H]2C[C@@](C)(OC)[C@@H](O)[C@H](C)O2)[C@H](C)[C@@H](O[C@@H]2O[C@H](C)C[C@H](N(C)C)[C@H]2O)[C@](C)(O)C[C@@H](C)/C(=N/OCOCCOC)[C@H](C)[C@@H](O)[C@]1(C)O"
Result: 0.987

Query: Cool, now "CC(=O)CCCCn1c(=O)c2c(ncn2C)n(C)c1=O"
Result: 0.995

Query: Cool, now NC(Cc1ccc(Cl)cc1)C(=O)O (centres undefined)
Result: 0.994
